# targetEntity: wildtype LRRK2 (Homo sapiens)
# Construct: endogenous in cells; host or cells: HEK293 with HiBit knocked in at the 3' end of the endogenous LRRK2 gene, stably expressing firefly luciferase
# experimentNotes: LRRK2 degradation HiBit assay, wildtype LRRK2 tagged with a HiBit tag in HEK293 cells
# Format: cell-based
# conditionSet: 24 hours compound incubation, read-out: ** WT Dmax (%)
measuredQuantity: Dmax

| compound | measuredQuantity | observed |
| --- | --- | --- |
| CC1=C(C(=O)Nc2ccc3[nH]nc(-c4ccnc(N5CCN(CC6CCN(CC7CCN(c8ccc9c(c8)C(=O)N(C8CCC(=O)NC8=O)C9=O)CC7)CC6)CC5)c4)c3c2)[C@@H](C)n2nnnc2N1C (stereo partly drawn) | Dmax | < 50% |
| CC1=C(C(=O)Nc2ccc3[nH]nc(-c4ccnc(N5C[C@@H](C)N(CC6CCN(CC7CCN(c8ccc9c(c8)C(=O)N(C8CCC(=O)NC8=O)C9=O)CC7)CC6)[C@@H](C)C5)c4)c3c2)C(C)(C)n2nnnc2N1C (stereo partly drawn) | Dmax | < 50% |
| CC1=C(C(=O)Nc2ccc3[nH]nc(-c4ccnc(N5CCN(CCN6CCC(CC7CCN(c8ccc9c(c8)C(=O)N(C8CCC(=O)NC8=O)C9=O)CC7)CC6)CC5)c4)c3c2)[C@@H](C)n2nnnc2N1C (stereo partly drawn) | Dmax | 50 to 70% |

---

Measured DC50 values are reported for all entries that follow.
# targetEntity: wildtype LRRK2 (Homo sapiens, UniProt Q5S007)
# Construct: endogenous in cells; host or cells: HEK293 with HiBit knocked in at the 3' end of the endogenous LRRK2 gene, stably expressing firefly luciferase
# Sequence (Q5S007 whole entry): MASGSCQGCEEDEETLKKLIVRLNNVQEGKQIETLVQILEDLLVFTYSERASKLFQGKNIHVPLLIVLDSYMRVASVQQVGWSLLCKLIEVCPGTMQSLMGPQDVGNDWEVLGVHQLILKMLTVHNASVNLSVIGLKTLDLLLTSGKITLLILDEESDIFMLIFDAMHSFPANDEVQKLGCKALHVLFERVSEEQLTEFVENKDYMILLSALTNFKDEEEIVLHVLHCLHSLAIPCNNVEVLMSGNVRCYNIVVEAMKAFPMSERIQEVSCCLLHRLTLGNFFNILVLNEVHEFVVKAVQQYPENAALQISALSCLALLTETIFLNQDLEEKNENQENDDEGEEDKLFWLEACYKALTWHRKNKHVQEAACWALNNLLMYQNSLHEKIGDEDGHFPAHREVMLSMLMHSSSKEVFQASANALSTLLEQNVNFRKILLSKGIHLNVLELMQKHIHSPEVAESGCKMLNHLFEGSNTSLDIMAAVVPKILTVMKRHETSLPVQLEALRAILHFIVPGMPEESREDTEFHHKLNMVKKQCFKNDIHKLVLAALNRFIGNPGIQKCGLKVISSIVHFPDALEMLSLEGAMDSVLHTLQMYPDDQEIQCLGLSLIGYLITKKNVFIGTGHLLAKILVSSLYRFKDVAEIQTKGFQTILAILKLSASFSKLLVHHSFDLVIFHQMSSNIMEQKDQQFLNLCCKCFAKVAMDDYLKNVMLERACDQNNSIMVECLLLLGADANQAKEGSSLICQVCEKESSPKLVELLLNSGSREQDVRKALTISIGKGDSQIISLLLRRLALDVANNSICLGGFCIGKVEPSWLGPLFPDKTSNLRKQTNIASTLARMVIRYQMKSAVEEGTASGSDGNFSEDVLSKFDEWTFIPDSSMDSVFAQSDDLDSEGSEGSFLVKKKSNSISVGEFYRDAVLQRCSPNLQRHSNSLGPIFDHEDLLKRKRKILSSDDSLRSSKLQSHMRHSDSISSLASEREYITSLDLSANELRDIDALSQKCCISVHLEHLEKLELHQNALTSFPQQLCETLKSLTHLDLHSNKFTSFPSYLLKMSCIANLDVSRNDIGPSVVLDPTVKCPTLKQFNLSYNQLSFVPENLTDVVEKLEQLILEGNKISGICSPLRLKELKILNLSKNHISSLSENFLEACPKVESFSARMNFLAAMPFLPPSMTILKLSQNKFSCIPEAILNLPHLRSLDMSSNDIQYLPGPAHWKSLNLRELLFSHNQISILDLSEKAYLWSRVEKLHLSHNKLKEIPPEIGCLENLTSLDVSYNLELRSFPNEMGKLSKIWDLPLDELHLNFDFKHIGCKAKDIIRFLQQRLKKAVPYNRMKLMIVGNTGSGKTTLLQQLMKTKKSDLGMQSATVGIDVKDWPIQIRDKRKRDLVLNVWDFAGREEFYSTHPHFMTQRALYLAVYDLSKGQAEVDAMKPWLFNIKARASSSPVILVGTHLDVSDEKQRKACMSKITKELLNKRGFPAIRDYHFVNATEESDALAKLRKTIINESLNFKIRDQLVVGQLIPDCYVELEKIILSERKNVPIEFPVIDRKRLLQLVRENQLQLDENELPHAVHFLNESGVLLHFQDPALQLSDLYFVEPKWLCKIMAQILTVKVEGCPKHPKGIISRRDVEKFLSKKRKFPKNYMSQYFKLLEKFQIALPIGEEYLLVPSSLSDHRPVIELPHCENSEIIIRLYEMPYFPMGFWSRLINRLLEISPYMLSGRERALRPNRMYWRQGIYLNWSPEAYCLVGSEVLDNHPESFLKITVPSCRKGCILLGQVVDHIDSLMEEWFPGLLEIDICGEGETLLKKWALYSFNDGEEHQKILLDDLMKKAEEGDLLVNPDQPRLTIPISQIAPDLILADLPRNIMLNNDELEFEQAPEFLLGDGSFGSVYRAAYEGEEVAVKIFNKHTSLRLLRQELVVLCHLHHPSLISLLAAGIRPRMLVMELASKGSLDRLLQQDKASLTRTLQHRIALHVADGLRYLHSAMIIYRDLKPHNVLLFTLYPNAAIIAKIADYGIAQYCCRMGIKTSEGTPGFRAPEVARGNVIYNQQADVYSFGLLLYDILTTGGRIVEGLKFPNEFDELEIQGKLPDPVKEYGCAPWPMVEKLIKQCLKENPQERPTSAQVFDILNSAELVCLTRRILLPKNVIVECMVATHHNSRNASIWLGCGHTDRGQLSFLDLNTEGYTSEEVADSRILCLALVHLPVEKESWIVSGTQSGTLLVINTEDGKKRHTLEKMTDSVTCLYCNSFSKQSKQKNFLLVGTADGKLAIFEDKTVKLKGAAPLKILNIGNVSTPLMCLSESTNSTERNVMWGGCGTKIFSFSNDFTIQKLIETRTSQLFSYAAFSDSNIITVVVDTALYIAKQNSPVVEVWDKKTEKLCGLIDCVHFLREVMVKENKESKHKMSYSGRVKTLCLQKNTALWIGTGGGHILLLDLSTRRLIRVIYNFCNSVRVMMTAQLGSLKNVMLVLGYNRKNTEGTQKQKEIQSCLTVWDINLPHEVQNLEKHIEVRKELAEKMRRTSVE
# experimentNotes: LRRK2 degradation HiBit assay, wildtype LRRK2 tagged with a HiBit tag in HEK293 cells
# Assay type: cell-based
# conditionSet: 24 hours compound incubation, read-out: *WT DC50
measuredQuantity: DC50

| molecule | targetEntity | observed |
| --- | --- | --- |
| CC1=C(C(=O)Nc2ccc3[nH]nc(-c4ccnc(N5CCN(CC6CCN(CC7CCN(c8ccc9c(c8)C(=O)N(C8CCC(=O)NC8=O)C9=O)CC7)CC6)CC5)c4)c3c2)C(C)(C)n2nnnc2N1C (centres unmarked) | wildtype LRRK2 (Homo sapiens, UniProt Q5S007) | ≥ 100 nM |
| CC1=C(C(=O)Nc2ccc3[nH]nc(-c4ccnc(N5CCN(CC(F)(F)C6CCN(CC7CCN(c8ccc9c(c8)C(=O)N(C8CCC(=O)NC8=O)C9=O)CC7)CC6)CC5)c4)c3c2)[C@@H](C)n2nnnc2N1C (some centres unmarked) | wildtype LRRK2 (Homo sapiens, UniProt Q5S007) | < 10 nM |
| CC1=C(C(=O)Nc2ccc3[nH]nc(-c4ccnc(N5CCN(CCN6CCC(CN7CCN(c8ccc9c(c8)C(=O)N(C8CCC(=O)NC8=O)C9=O)CC7)CC6)CC5)c4)c3c2)[C@H](C)n2nnnc2N1C (some centres unmarked) | wildtype LRRK2 (Homo sapiens, UniProt Q5S007) | ≥ 100 nM |
| CC1=C(C(=O)Nc2ccc3[nH]nc(-c4ccnc(N5CCN(CCN6CCN(CC7CCN(c8ccc9c(c8)C(=O)N(C8CCC(=O)NC8=O)C9=O)CC7)CC6)[C@@H](C)C5)c4)c3c2)[C@H](C)n2nnnc2N1C (some centres unmarked) | wildtype LRRK2 (Homo sapiens, UniProt Q5S007) | ≥ 100 nM |
| CC1=C(C(=O)Nc2ccc3[nH]nc(-c4ccnc(N5CC6(CN(CC7CCN(c8ccc9c(c8)C(=O)N(C8CCC(=O)NC8=O)C9=O)CC7)C6)C5)c4)c3c2)[C@@H](C)n2nnnc2N1C (some centres unmarked) | wildtype LRRK2 (Homo sapiens, UniProt Q5S007) | ≥ 100 nM |
